Hey, just so you know, these numbers are from patent US9120749B2.

- Test system: HT-1197 cells
- Assay Summary: Cell-based assay: anti-proliferative activity, Cell Counting Kit-8, 72 hours (HT-1197, negative control without MELK expression)
- Recorded Conditions: HT1197 cells (negative control), 72 hours; hydrochloride
Structures can show the parent of a compound that is named as a salt.
Property: IC50 (µM)
Give a bare numeral; the unit µM is implied.

Here is how some molecules turned out for IC50.
CN(C)CCc1ccc(Nc2c(C(=O)C3CC3)cnc3ccc(-c4cc(Cl)c(O)c(Cl)c4)cc23)cc1 [Example 614, hydrochloride] ... 1.6
NC1CCCN(c2ccc(Nc3c(C(=O)C4CC4)cnc4ccc(-c5cc(F)c(O)c(Cl)c5)cc34)cn2)C1 (centres unmarked) [Example 562, hydrochloride] ... 0.19
CN1CCN(C[C@H]2CC[C@H](Nc3c(C(=O)C4CC4)cnc4ccc(-c5cc(Cl)c(O)c(Cl)c5)cc34)CC2)CC1 [Example 619, hydrochloride] ... 2.6

Result for O=C(c1cnc2ccc(-c3cc(Cl)c(O)c(Cl)c3)cc2c1N[C@H]1CC[C@H](CN2CCCC2)CC1)C1CC1 [Example 585, hydrochloride] , tested on HT-1197 cells, IC50: 0.78

The recorded IC50 with HT-1197 cells for NC1CCN(c2ccc(Nc3c(C(=O)C4CC4)cnc4ccc(-c5cc(F)c(O)c(Cl)c5)cc34)cn2)C1 (centres unmarked) [Example 577, hydrochloride] was 0.52

The molecule NC1CCN(c2ncc(Nc3c(C(=O)C4CC4)cnc4ccc(-c5cc(F)c(O)c(Cl)c5)cc34)cn2)C1 (centres unmarked) [Example 573, hydrochloride] on HT-1197 cells: IC50 was 0.57

Log: HT-1197 cells, molecule O=C(c1cnc2ccc(-c3cc(F)c(O)c(Cl)c3)cc2c1N[C@H]1CC[C@H](CN2CCCC2)CC1)C1CC1 [Example 588, hydrochloride] , IC50 = 0.46

With HT-1197 cells as the test system, NC1CCN(c2ccc(Nc3c(C(=O)C4CC4)cnc4ccc(-c5cc(Cl)c(O)c(Cl)c5)cc34)cn2)CC1 [Example 549, hydrochloride] showed IC50 of 3.2
